Attribution: ChEMBL document CHEMBL4339222

tested on: Plasmodium falciparum; assay: Inhibition of recombinant His-tagged Plasmodium falciparum GAPDH expressed in Escherichia coli assessed as reduction in NADH formation by measuring Kinact/Ki ratio in presence of NAD+, DL-glyceraldehyde 3-phosphate and GAPDH by spectrophotometry based Ferdinand assay
Calls of active or inactive are those of the source. No cut-off for these calls is given here.
attribute-measured: Ratio

Known Ratio results, listed for orientation:
N[C@H](C(=O)O)[C@@H]1CC(Br)=NO1
0.7 s⁻¹ M⁻¹
N[C@H](C(=O)NCc1ccccc1)[C@@H]1CC(Br)=NO1
0.6 s⁻¹ M⁻¹
COC(=O)[C@@H](N)[C@@H]1CC(Br)=NO1
10.7 s⁻¹ M⁻¹
N[C@H](C(=O)NCc1ccc([N+](=O)[O-])cc1)[C@@H]1CC(Br)=NO1
1.9 s⁻¹ M⁻¹

Could you tell me Ratio for each of these molecules? They are listed below.
1. N[C@H](CSCc1ccccc1)[C@@H]1CC(Br)=NO1
2. N[C@H](CS(=O)(=O)Cc1ccccc1)[C@@H]1CC(Br)=NO1
3. N[C@H](C(=O)NCCc1ccccc1)[C@@H]1CC(Br)=NO1

Reply |
1: 1.6 s⁻¹ M⁻¹; 2: inactive; 3: 0.4 s⁻¹ M⁻¹

Could you tell me Ratio for each of these molecules? They are listed below.
1. COc1ccc(CNC(=O)[C@@H](N)[C@@H]2CC(Br)=NO2)cc1
2. N[C@H](C(=O)NCc1ccc(F)cc1)[C@@H]1CC(Br)=NO1
3. N[C@H](CS(=O)(=O)Cc1ccccc1)[C@H]1CC(Br)=NO1
4. N[C@H](CSCc1ccccc1)[C@H]1CC(Br)=NO1
5. N[C@H](COCc1ccccc1)[C@@H]1CC(Br)=NO1
6. N[C@H](C(=O)OCc1ccccc1)[C@@H]1CC(Br)=NO1

Reply |
1. inactive
2. inactive
3. 1.6 s⁻¹ M⁻¹
4. 0.2 s⁻¹ M⁻¹
5. 2.6 s⁻¹ M⁻¹
6. 6.6 s⁻¹ M⁻¹

----------
Hi there, I'd appreciate the recorded selectivity ratio for every entry that follows.
assay: Selectivity index, ratio of IC50 for human HMEC1 cells to IC50 for antimalarial activity against CQ-susceptible Plasmodium falciparum D10 infected in human type A-positive red blood cells; assay type: toxicity; details: read-out: Ratio IC50
One number for each entry.

Known selectivity ratio results, listed for orientation:
N[C@H](C(=O)NCc1ccccc1)[C@@H]1CC(Br)=NO1
41.4
N[C@H](C(=O)O)[C@@H]1CC(Br)=NO1
56.3
COC(=O)[C@@H](N)[C@@H]1CC(Br)=NO1
44

Could you now look at the following compound, please?
Looking up `N[C@H](C(=O)NCc1ccc([N+](=O)[O-])cc1)[C@@H]1CC(Br)=NO1` , I see its selectivity ratio listed as 45.7

----------
assay: Selectivity index, ratio of IC50 for human HMEC1 cells to IC50 for antimalarial activity against CQ-resistant Plasmodium falciparum W2 infected in human type A-positive red blood cells; type: toxicity; conditions: read-out: Ratio IC50
Hi there, I'd appreciate the recorded selectivity ratio for every entry that follows.

Known selectivity ratio results, listed for orientation:
N[C@H](C(=O)OCc1ccccc1)[C@@H]1CC(Br)=NO1
> 250
N[C@H](C(=O)O)[C@@H]1CC(Br)=NO1
57.9
COC(=O)[C@@H](N)[C@@H]1CC(Br)=NO1
39.5
N[C@H](C(=O)NCc1ccccc1)[C@@H]1CC(Br)=NO1
31
N[C@H](C(=O)NCc1ccc([N+](=O)[O-])cc1)[C@@H]1CC(Br)=NO1
50.1

Looking up `N[C@H](C(=O)NCCc1ccccc1)[C@@H]1CC(Br)=NO1` , I see its selectivity ratio listed as > 400
